# Tgt: wild-type human cardiac sodium channel, hNav1.5 (peak INa) (Homo sapiens, UniProt Q14524)
# Sequence (Q14524 whole entry): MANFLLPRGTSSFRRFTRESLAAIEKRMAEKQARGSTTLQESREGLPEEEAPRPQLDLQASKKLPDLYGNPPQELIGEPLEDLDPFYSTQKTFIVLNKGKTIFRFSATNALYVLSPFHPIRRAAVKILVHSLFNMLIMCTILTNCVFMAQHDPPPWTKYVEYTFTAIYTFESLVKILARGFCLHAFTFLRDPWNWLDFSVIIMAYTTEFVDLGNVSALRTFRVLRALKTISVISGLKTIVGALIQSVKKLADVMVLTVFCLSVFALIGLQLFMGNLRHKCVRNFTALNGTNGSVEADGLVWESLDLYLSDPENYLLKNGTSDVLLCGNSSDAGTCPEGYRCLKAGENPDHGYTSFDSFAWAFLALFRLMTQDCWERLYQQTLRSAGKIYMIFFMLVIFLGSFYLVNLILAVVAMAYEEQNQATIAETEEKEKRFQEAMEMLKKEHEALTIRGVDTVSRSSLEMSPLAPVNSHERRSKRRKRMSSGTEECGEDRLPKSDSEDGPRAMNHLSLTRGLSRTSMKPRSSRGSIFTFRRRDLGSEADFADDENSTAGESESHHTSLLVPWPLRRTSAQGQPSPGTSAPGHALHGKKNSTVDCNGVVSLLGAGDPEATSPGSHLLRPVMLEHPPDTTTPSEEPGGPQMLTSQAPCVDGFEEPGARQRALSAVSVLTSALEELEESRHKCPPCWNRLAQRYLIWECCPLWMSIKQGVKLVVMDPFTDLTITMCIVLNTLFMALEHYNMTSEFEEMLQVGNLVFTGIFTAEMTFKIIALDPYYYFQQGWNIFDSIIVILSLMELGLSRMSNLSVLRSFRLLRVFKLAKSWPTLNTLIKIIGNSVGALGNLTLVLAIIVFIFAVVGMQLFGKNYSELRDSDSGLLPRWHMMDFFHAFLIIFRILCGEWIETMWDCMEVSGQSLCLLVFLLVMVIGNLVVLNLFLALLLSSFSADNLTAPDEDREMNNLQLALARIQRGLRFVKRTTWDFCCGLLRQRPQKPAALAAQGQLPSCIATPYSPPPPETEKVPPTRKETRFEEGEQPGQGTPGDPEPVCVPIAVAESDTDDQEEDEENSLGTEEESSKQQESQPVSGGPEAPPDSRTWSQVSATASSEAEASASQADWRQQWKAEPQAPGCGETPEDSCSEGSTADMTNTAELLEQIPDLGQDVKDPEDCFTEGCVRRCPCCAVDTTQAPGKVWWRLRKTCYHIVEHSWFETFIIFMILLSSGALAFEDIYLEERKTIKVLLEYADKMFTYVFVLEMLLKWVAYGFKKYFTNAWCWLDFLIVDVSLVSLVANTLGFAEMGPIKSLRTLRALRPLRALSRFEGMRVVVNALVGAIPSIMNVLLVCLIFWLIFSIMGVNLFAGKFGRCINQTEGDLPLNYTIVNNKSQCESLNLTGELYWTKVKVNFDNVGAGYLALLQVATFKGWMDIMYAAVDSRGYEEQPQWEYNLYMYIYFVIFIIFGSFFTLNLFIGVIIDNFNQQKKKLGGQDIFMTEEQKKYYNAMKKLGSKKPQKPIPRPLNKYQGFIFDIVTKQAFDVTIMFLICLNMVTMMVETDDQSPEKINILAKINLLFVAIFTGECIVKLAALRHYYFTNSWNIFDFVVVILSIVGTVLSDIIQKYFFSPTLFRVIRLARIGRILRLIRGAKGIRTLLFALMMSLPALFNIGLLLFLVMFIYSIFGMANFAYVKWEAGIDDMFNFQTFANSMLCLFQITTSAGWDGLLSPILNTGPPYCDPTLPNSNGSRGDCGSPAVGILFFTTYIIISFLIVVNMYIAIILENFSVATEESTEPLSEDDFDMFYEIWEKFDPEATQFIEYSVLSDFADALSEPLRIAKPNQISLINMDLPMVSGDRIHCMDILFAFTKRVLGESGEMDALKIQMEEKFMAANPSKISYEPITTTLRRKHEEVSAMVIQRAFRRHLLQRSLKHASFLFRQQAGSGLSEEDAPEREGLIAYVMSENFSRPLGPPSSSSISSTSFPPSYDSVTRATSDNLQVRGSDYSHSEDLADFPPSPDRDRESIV
# Experiment summary: Peak INa screening assay (tonic and use-dependent block)
# Type: cell-based
# Condition parameters: % inhibition at 1 μM, use-dependent block 3 Hz; read-out: NAv1.5*-PEAK-UDB-3 HZ-
Measurement label: inhibition at 1 µM

Request: Bench note: what inhibition at 1 µM did `O=c1c2cc(-c3ccc(OC(F)(F)F)cc3)ccc2nnn1CCc1ncccn1` show?
Response: 13%

Request: Bench note: what inhibition at 1 µM did `O=C(Cc1ccccn1)N1CCc2ccc(-c3ccc(C(F)(F)F)cc3)cc2C1` show?
Response: 12%

Request: Bench note: what inhibition at 1 µM did `O=C(c1ncccc1F)N1CCc2ccc(-c3ccc(C(F)(F)F)cc3)cc2C1` show?
Response: 32%

Request: Bench note: what inhibition at 1 µM did `O=C(c1ncccn1)N1CCc2ccc(-c3ccc(C(F)(F)F)cc3)cc2C1` show?
Response: 17%

Request: Bench note: what inhibition at 1 µM did `Cc1noc(Cn2cnc3ccc(-c4ccc(OC(F)(F)F)cc4)cc3c2=O)n1` show?
Response: 7%

Request: Bench note: what inhibition at 1 µM did `O=c1c2cc(-c3ccc(OC(F)(F)F)cc3)ccc2nnn1Cc1noc(C2CC2)n1` show?
Response: 1%

Request: Bench note: what inhibition at 1 µM did `O=c1c2cc(-c3ccc(OC(F)(F)F)cc3)ccc2nnn1CCOc1ncccn1` show?
Response: 21%

Request: Bench note: what inhibition at 1 µM did `O=c1c2cc(-c3ccc(OC(F)(F)F)cc3)ccc2nnn1Cc1noc(-c2ccccn2)n1` show?
Response: 8%

Request: Bench note: what inhibition at 1 µM did `O=C1c2cc(-c3ccc(C(F)(F)F)cc3)ccc2OCN1Cc1ccccn1` show?
Response: 26%
